- assayed system: T1, CRBN, Q96SW2;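 further: pooled lentiviral library of zinc finger degron-EGFP fusions in mCherry-positive Jurkat cells, FACS-sorted after compound exposure, with degron abundance counted by next-generation sequencing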
- T1 chain: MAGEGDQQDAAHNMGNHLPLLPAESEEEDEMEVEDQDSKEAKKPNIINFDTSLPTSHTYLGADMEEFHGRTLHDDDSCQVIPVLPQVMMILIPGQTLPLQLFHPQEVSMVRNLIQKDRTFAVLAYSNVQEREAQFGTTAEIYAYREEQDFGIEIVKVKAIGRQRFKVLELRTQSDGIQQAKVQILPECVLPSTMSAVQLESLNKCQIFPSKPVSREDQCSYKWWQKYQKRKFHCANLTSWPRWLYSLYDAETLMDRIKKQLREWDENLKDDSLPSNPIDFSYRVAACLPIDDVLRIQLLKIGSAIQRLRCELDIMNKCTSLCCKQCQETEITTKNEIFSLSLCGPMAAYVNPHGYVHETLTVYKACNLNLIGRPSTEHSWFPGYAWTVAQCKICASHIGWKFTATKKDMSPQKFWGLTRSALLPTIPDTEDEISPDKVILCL
- measurement protocol: log2 fold change of degron read counts, EGFP-low vs EGFP+ sorted cells (limma voom), compound-induced degradation; higher = more compound-induced degradation of the degron-EGFP fusion; degrons are variants of IKZF1/3 zinc finger 2; compound dose not given here
- recorded conditions: Jurkat; 18 h; compound: thalidomide
In all, about 8,300 sequences were measured (“log2 fold change of degron read counts, EGFP-low vs EGFP+ sorted cells (limma voom), compound-induced degradation”: median about -1.1, highest 2% from about 3.2 on). The sample holds the highest values, similar sequences and a random draw of the others, so the mix is not that of the screen.
endpoint name: log2 fold change of degron read counts
The response must contain the number and no unit.

Ask | Dear colleague, please send me the reported log2 fold change of degron read counts for FDCPICGANFTQKGNLLRHIKL [46F_47D_49P_50I_52G_53A_54N_55F_67L_, Q9UKT9] when you can.
Reply | 2.15

Ask | Return the recorded log2 fold change of degron read counts value; entry: FQCPICGANFTQKGNLLRHIKL [46F_47Q_49P_50I_52G_53A_54N_55F_67L_, Q9UKT9]
Reply | 3.58

Ask | Quickly give me recorded log2 fold change of degron read counts for FNCPICGANFTQKGNLLRHIKL [46F_47N_49P_50I_52G_53A_54N_55F_67L_, Q9UKT9]
Reply | 0.651

Ask | Consider the sequence FTCPICGANFTQKGNLLRHIKL [46F_47T_49P_50I_52G_53A_54N_55F_67L_, Q9UKT9] and give its recorded log2 fold change of degron read counts.
Reply | 2.85

Ask | Answer with reported log2 fold change of degron read counts of FMCPICGANFTQKGNLLRHIKL [46F_47M_49P_50I_52G_53A_54N_55F_67L_, Q9UKT9]
Reply | 1.98

Ask | Supply log2 fold change of degron read counts value. Item: FVCPICGANFTQKGNLLRHIKL [46F_47V_49P_50I_52G_53A_54N_55F_67L_, Q9UKT9]
Reply | 2.81

Ask | Supply reported log2 fold change of degron read counts belonging to this sequence: FSCPICGANFTQKGNLLRHIKL [46F_47S_49P_50I_52G_53A_54N_55F_67L_, Q9UKT9]
Reply | 1.54
